Molecular target: T1, NT-4 (neurotrophin-4) (Homo sapiens, UniProt P34130 P34130:81-210)
T1 sequence: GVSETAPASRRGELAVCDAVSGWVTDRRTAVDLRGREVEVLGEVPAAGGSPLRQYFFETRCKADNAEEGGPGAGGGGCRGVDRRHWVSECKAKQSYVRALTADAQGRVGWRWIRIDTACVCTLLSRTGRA
Assay: cell_activity; TF-1
Conditions: tags: R&D Systems; chain copies: 2
MEASUREMENT_KIND: IC50

{"BINDER": "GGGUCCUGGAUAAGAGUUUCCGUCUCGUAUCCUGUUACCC (ssRNA, as 82(1) except 2'-OMe C39) [SEQ ID NO: 82(17)]", "MEAS_VALUE": "< 3 nM"}
{"BINDER": "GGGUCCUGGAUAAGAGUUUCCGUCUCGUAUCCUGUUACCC (ssRNA, as 82(1) except 2'-OMe C31) [SEQ ID NO: 82(12)]", "MEAS_VALUE": "< 3 nM"}
{"BINDER": "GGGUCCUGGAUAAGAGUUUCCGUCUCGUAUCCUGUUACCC (ssRNA, as 82(1) except 2'-OMe C6) [SEQ ID NO: 82(3)]", "MEAS_VALUE": "9.36 nM"}

// for each binder in input: emit IC50
1. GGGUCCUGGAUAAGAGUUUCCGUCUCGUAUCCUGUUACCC (ssRNA, as 82(1) except 2'-OMe C21) [SEQ ID NO: 82(6)]
2. GGGUCCUGUUCAAGAGUUUCCGUCUCGUGAACUGUUACCC (ssRNA, 2'-OMe C38-40; other C/U 2'-F, G 2'-OH, dA; 5',3' idT) [SEQ ID NO: 88(1)]
3. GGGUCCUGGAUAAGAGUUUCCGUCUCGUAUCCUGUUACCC (ssRNA, as 82(1) except 2'-OMe U28) [SEQ ID NO: 82(10)]

1: < 3 nM; 2: < 100 nM; 3: < 3 nM
